# Test system: 876862-298-R-J1-PDC complex spheroids, viability % test/control;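 further: spheroids exposed to drugs for 7 days before readout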
# test_name: Anticancer human tumor 876862-298-R-J1-PDC patient-derived endometrial carcinoma cell line growth inhibition [CLK]; active means viability on the fitted dose curve at most 10% of control; inactive means the rest
# run_conditions: second compound 1 µM; first compound 0.00316 µM
Field 'call' accepts Y = active, N = inactive

Field: example entries. Status: answers known.
compound	category
CCc1c2c(nc3ccc(O)cc13)-c1cc3c(c(=O)n1C2)COC(=O)[C@]3(O)CC + CNC(=O)c1ccc(Nc2nc(OC3CCCC3)c3c(-c4ccc5nc(C)oc5c4)c[nH]c3n2)c(OC)c1	Y
COc1c(OCCCN2CCOCC2)ccc2c3n(c(=NC(=O)c4cnc(N)nc4)nc12)CCN3 + CN1CCN(c2cc(C(=O)Nc3cc4cc(-c5cnn(C)c5)ccc4cn3)ccn2)CC1	Y
Cn1ncnc1[C@H]1c2n[nH]c(=O)c3cc(F)cc(c23)N[C@@H]1c1ccc(F)cc1 + CNC(=O)c1ccc(Nc2nc(OC3CCCC3)c3c(-c4ccc5nc(C)oc5c4)c[nH]c3n2)c(OC)c1	N
CCc1c2c(nc3ccc(O)cc13)-c1cc3c(c(=O)n1C2)COC(=O)[C@]3(O)CC + CN1CCN(c2cc(C(=O)Nc3cc4cc(-c5cnn(C)c5)ccc4cn3)ccn2)CC1	Y

Now take the following compound into account.
Exam item: Call for entry COc1c(OCCCN2CCOCC2)ccc2c3n(c(=NC(=O)c4cnc(N)nc4)nc12)CCN3 + CNC(=O)c1ccc(Nc2nc(OC3CCCC3)c3c(-c4ccc5nc(C)oc5c4)c[nH]c3n2)c(OC)c1 :
Marked response: N
